- tested_target: JAK3 (Homo sapiens, UniProt P52333)
- Sequence (P52333 1-1124): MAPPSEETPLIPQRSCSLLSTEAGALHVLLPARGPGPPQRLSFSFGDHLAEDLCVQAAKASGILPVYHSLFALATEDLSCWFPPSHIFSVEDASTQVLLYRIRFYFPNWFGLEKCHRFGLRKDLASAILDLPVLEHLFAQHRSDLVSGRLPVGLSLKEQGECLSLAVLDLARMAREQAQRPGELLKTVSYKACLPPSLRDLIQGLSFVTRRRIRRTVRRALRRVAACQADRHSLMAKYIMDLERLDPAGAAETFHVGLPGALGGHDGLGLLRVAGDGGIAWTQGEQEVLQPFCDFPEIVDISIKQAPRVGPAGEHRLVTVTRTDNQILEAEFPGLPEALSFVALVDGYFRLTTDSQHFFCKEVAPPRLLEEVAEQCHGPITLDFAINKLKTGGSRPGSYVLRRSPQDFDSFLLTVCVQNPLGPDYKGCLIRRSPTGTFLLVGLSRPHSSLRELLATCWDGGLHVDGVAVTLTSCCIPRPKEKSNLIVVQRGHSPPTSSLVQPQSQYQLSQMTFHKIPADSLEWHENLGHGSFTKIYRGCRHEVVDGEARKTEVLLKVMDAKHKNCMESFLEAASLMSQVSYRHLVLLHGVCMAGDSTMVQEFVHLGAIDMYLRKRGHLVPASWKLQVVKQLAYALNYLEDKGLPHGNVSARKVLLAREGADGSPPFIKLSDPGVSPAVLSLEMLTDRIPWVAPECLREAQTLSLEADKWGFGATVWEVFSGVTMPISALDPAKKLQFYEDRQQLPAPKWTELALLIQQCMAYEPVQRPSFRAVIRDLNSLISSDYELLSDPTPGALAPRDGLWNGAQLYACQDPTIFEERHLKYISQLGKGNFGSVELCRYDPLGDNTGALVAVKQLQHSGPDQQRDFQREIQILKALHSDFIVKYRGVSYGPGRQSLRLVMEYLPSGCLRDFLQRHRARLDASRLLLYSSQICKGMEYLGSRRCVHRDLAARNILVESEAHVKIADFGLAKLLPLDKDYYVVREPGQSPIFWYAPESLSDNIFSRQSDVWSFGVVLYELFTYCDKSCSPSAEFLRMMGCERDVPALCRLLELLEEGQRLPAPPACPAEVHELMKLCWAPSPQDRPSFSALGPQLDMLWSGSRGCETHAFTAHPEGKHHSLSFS
pKi: −log10 of the molar value.
Documented pKi across a set of molecules
quantity_kind: pKi

molecule	tested_target	observed_result
N#CCCN(C(=O)c1cc(-c2ncnc3[nH]ccc23)c[nH]1)C1CCCC1	JAK3 (Homo sapiens, UniProt P52333)	6.30 to 7.00
O=C(O)C1CCCCC1C(=O)Nc1nc(-c2ncnc3[nH]ccc23)cs1 (stereo not drawn)	JAK3 (Homo sapiens, UniProt P52333)	6.30 to 7.00
O=C(O)CC1(CC(=O)Nc2nc(-c3ncnc4[nH]ccc34)cs2)CCCC1	JAK3 (Homo sapiens, UniProt P52333)	6.30 to 7.00
